Each recorded value in this set is attributed to patent US20150037339A1.

molecular target: activin Type II receptors; experiment: cell-based or functional assay
measured.parameter: EC50, activation of A204/CAGAx12-Luc cells (Smad 2/3-luciferase reporter) (nM)
Answers are plain numbers, in nM.

Q: I have this binder here, Activin A, P08476 311-426 (ligand) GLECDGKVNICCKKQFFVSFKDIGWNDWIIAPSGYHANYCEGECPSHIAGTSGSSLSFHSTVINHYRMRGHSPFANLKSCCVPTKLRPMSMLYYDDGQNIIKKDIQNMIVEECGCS , and I need its recorded EC50, activation of A204/CAGAx12-Luc cells (Smad 2/3-luciferase reporter).
A: 0.099
